biological target: UniProtKB P08908
Sequence (P08908 whole entry): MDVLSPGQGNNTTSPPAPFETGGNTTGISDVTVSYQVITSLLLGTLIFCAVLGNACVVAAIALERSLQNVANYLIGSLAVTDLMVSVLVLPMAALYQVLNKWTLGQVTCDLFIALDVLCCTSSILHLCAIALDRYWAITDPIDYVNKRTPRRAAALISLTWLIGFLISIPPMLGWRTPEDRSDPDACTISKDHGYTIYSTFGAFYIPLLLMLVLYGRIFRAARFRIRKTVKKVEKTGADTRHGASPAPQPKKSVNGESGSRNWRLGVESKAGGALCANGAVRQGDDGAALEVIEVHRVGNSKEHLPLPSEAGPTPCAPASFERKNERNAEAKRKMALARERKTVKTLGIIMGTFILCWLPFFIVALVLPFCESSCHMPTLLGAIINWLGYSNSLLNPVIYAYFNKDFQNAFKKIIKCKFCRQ
measurement type: pKi
# pKi = -log10(concentration in molar units)

Known value: UniProtKB P08908 pKi of the compound `COc1ccsc1C1=CCN([C@H]2CC[C@H](c3c[nH]c4ccc(F)cc43)CC2)CC1` equals 7.69
